- Tgt: RARβ (Homo sapiens)
- Sequence (P10826 1-455): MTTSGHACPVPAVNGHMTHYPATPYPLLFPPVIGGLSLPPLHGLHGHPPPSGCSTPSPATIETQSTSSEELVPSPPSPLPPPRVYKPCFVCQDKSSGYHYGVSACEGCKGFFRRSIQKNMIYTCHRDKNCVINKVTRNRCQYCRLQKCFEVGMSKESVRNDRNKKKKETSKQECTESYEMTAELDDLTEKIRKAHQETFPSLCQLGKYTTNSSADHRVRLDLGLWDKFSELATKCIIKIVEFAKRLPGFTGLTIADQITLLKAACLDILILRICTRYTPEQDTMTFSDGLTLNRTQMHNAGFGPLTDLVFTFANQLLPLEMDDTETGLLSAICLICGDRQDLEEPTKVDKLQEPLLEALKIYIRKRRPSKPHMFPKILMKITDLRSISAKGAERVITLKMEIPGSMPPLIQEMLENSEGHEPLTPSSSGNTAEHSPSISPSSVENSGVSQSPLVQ
In this section, each of the compounds is paired with its reported Kd.
Value Type: Kd

INSERT INTO results (smiles_string, assay_value) VALUES
  ('CCc1ccc(C2=C(/C=C/C#Cc3ccc(C(=O)O)cc3)C(C)(C)CCC2)cc1', '4 nM'),
  ('Cc1ccc(C2=CCC(C)(C)C=C2/C=C/C#Cc2ccc(C(=O)O)cc2)cc1', '48 nM');
